tested on: SK-OV-3 ovarian; test: NCI tumour cell line growth inhibition, 48 h
Entries and their TGI values follow.

-- ask Item under review: CN(C)C1(C#N)CCC2(CC1)OCCO2 . Reported TGI?
-- reply > 100 µM

-- ask Item under review: O=C(Nc1ccccc1)c1cc2c(cc1Cl)Sc1nccn1S2(=O)=O . Reported TGI?
-- reply > 100 µM

###

system: HT29 colon; test: NCI tumour cell line growth inhibition, 48 h
MEASUREMENT LABEL: GI50

As a guide, the following entries are already answered.
• COc1cc[c]([Hg][Cl])cc1 = 5.4 µM
• CCOC(=O)c1cnc2ccc(Cl)cc2c1NCCCN(C)C = 14.1 µM
• COc1cc(-c2cc(-c3ccc(N(C)C)cc3)nc(N3CCC(O)CC3)c2C#N)cc(OC)c1OC = 0.272 µM
• COc1ccc(NC(=O)c2ccc(NC3=C(Cl)C(=O)N(Cc4ccccc4)C3=O)cc2)cc1 = 11.5 µM
• COC12C=C/C(=C(/C(=O)OCc3ccncn3)C(=O)CCCCCCCCC3(OC)C=C/C(=C(/C(=O)OCc4ccncn4)C(=O)CCCCCCCC1)O3)O2 = 0.266 µM
• N#Cc1c(N)nn(C(=O)c2ccc(NC(=O)c3ccccn3)cc2)c1-c1ccc(Cl)cc1 = 3.55 µM
• CC/C(=C(\c1ccccc1)c1ccc(OCCN(C)C)cc1)c1ccccc1 = 1.17 µM
• COc1ccc(C(=O)c2cc3c(N)c(C(=O)Nc4cccc(Cl)c4)sc3nc2C)cc1 = 1.2 µM
• O=C(Nc1ccc(Cl)c(Cl)c1)Nc1ccc(Cl)c([N+](=O)[O-])c1 = 1.24 µM
• CC[C@]1(O)C[C@@H]2CN(Cc3c([nH]c4ccccc34)[C@@](C(=O)OC)(c3cc4c(cc3OC)N(C)[C@H]3[C@@](O)(C(=O)OC)[C@H](OC(C)=O)[C@]5(CC)[C@@H]6C[C@@H]6CN6CC[C@]43[C@@H]65)C2)C1 = 0.0311 µM

-- ask Item under review: CCN1CCC(C(=O)Nc2n[nH]c3nnc(-c4cccc(F)c4F)cc23)CC1 . Reported GI50?
-- reply 5.02 µM

-- ask Item under review: O=C(CCCCCCc1nc2ccc(Br)cc2[nH]1)NO . Reported GI50?
-- reply 0.291 µM

-- ask Item under review: COc1ccc(CN2CCc3c(Cl)nc(N)nc3C2=O)c(OC)c1 . Reported GI50?
-- reply 15.2 µM

-- ask Item under review: CC(C)(O)Cn1c(=O)c(Oc2ccc(F)cc2F)cc2cnc(NC3CCOCC3)nc21 . Reported GI50?
-- reply > 25 µM

###

Entries and their TGI values follow.
tested on: SK-MEL-2 melanoma; test: NCI tumour cell line growth inhibition, 48 h

- C(=N\Nc1ncc(-c2cc3cc4c(cc3o2)OCO4)s1)/c1c[nH]c2ccccc12: 8.07 µM

-- ask Item under review: CC1=NN(c2cccc(Cl)c2)C2(C1)C(Cl)C(=O)N2c1nc2ccccc2s1 (configuration not stated) . Reported TGI?
-- reply 38.7 µM

-- ask Item under review: CCCCN(CCCC)C(=Nc1ccccc1)N(CCCC)CCCC . Reported TGI?
-- reply 18.9 µM

-- ask Item under review: COC(=O)C1Cc2c([nH]c3ccccc23)[C@H](CC(C)C)N1 (some centres not stated) . Reported TGI?
-- reply > 100 µM

-- ask Item under review: N/C(=N\N=C\c1ccc2c(c1)OCO2)NO . Reported TGI?
-- reply 61.1 µM
